TARGET: T1, human glucagon receptor (human, UniProt P47871 26-477)
T1 construct: whole, on cells; also called hGCGR; hGcgR
T1 sequence (P47871 26-477): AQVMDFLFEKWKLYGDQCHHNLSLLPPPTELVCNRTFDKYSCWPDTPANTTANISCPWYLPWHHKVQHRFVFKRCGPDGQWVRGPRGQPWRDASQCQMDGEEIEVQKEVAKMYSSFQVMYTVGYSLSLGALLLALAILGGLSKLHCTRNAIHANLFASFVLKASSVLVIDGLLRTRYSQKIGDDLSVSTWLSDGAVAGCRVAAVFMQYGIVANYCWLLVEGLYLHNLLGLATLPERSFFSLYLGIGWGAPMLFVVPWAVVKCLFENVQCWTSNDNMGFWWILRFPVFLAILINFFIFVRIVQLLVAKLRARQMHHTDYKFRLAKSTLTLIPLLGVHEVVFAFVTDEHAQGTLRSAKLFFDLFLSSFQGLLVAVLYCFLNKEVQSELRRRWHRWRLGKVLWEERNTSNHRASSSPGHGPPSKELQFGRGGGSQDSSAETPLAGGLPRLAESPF
METHOD: SPA competition vs [125I]-Gcg, hGcgR membranes
PARAMETER: pKi
Please keep in mind that pKi is minus log10 of the molar concentration; only the number is needed.

| BINDER | PARAMETER | ENDPOINT_VALUE |
| --- | --- | --- |
| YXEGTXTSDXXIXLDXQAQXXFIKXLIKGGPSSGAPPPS (Aib2, αMeF(2F)6, 4Pal10, Aib11, αMeL13, Orn16, Aib20, Orn21, K24(Z1), αMeY25, K28(Z1), C-term NH2; Z1=PEG4-(γ-Glu)-CO-(CH2)12-CO2H) | pKi | 6.45 |
| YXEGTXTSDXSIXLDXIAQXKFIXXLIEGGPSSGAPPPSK (Aib2, αMeF(2F)6, 4Pal10, αMeL13, Orn16, Aib20, K21(Z1), D-Glu24, αMeY25, K40(Z1), C-term NH2; Z1=AEEA2-(γ-Glu)-CO-(CH2)12-CO2H) | pKi | 6.69 |
| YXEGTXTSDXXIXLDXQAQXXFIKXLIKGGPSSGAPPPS (Aib2, αMeF(2F)6, 4Pal10, Aib11, αMeL13, Orn16, Aib20, Orn21, K24(Z1), αMeY25, K28(Z1), C-term NH2; Z1=PEG3-(γ-Glu)-(10-(4-carboxyphenoxy)decanoyl)) | pKi | 7.06 |

Recorded pKi (binder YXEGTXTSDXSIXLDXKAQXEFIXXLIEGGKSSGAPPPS (Aib2, αMeF(2F)6, 4Pal10, αMeL13, Orn16, K17(Z1), Aib20, D-Glu24, αMeY25, K31(Z1), C-term NH2; Z1=(εK)-(γ-Glu)-(γ-Glu)-CO-(CH2)12-CO2H) ): 6.39

Entry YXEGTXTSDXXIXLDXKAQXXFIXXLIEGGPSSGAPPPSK (Aib2, αMeF(2F)6, 4Pal10, Aib11, αMeL13, Orn16, K17(Z1), Aib20, Orn21, D-Glu24, αMeY25, K40(Z1), C-term NH2; Z1=AEEA3-(γ-Glu)-CO-(CH2)10-CH3) [Y-Aib-EGT-αMeF(2F)-TSD-4Pal-Aib-I-αMeL-LD-Orn-K((2-[2-(2-Amino-ethoxy)-ethoxy]-acetyl)3-(γ …] — recorded pKi = 7.84

pKi reported for this binder YXEGTXTSDXXIXLDXKAQXKFIXXLIXGGPSSGAPPPS (Aib2, αMeF(2F)6, 4Pal10, Aib11, αMeL13, Orn16, K17(Z1), Aib20, K21(Z1), D-Glu24, αMeY25, Orn28, C-term NH2; Z1=AEEA3-(γ-Glu)-CO-(CH2)10-CH3) : 7.55

Field pKi (entry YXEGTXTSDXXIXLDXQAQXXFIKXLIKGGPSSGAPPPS (Aib2, αMeF(2F)6, 4Pal10, Aib11, αMeL13, Orn16, Aib20, Orn21, K24(Z1), αMeY25, K28(Z1), C-term NH2; Z1=(γ-Glu)-AEEA2-(γ-Glu)-CO-(CH2)12-CO2H) ) reads 6.56

The binder identified as YXEGTXTSDXSIXLDXKAQXKFIXXLIXGGPSSGAPPPS (Aib2, αMeF(2F)6, 4Pal10, αMeL13, Orn16, K17(Z1), Aib20, K21(Z1), D-Glu24, αMeY25, Orn28, C-term NH2; Z1=AEEA2-(γ-Glu)-CO-(CH2)10-CH3) registered its pKi at 7.84

The recorded pKi for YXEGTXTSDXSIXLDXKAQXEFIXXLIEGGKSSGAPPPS (Aib2, αMeF(2F)6, Nle10, αMeL13, Orn16, K17(Z1), Aib20, D-Glu24, αMeY25, K31(Z1), C-term NH2; Z1=AEEA2-(γ-Glu)-CO-(CH2)12-CO2H) is 6.13
